- Tested system: T1, Bdf1 bromodomain 2 (GST-tagged, WT) (Saccharomyces cerevisiae (strain ATCC …, UniProt P35817))
- T1 chain: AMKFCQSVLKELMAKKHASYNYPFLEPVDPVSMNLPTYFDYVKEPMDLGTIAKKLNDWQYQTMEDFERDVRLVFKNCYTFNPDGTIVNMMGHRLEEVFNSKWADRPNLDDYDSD
- Procedure text: histone peptide array probed with recombinant GST-bromodomain, signal normalised to myc peptide control
Non-standard residues stand in square brackets, D forms with d. No end group written: not given here. Arg(Me2a) = CN(C)C(=N)NCCC[C@H](N)C(=O)O; Lys(Me3) = C[N+](C)(C)CCCC[C@H](N)C(=O)O; Arg(Me2s) = CN=C(NC)NCCC[C@H](N)C(=O)O; Lys(Me2) = CN(C)CCCC[C@H](N)C(=O)O; pS = N[C@@H](COP(=O)(O)O)C(=O)O

{"columns": ["Binder", "binding score"],
 "data": [
  ["ARTKQTARKSTGGKAPRKQ (A Rme2s T Kac Q T A Rme2s Kme3 S T G G K A P R K Q)", 0.00521],
  ["ARTKQTARKSTGGKAPRKQ (A R T K Q T A Rme2s Kac pS T G G K A P R K Q)", 0.00403],
  ["SGRGKGGKGLGKGGAKRHR (S G R G K G G K G L G K G G A Kac R H R) [H4 1-19]", 0],
  ["ARTKQTARKSTGGKAPRKQ (A Rme2s T Kme3 Q T A Rme2a Kac S T G G K A P R K Q)", 0.00305],
  ["ARTKQTARKSTGGKAPRKQ (A Rme2s T Kme1 Q T A Rme2s Kme3 S T G G K A P R K Q)", 0],
  ["ARTKQTARKSTGGKAPRKQ (A Rme2s T Kac Q T A Rme2s Kac S T G G K A P R K Q)", 0.131],
  ["ART[Lys(Me3)]QTA[Arg(Me2s)][Lys(Me2)]STGGKAPRKQ", 0.00561],
  ["ARTKQTA[Arg(Me2a)]K(Ac)[pS]TGGKAPRKQ", 0.00384],
  ["ARTKQTARKSTGGKAPRKQ (A R T Kme1 Q T A Rme2a Kac S T G G K A P R K Q)", 0.00915],
  ["ARTKQTARKSTGGKAPRKQ (A Rme2s pT Kme3 Q T A R K S T G G K A P R K Q)", 0.00895]
]}
